test system: Plasma; assay: Plasma concentration in rat carrageenan inflammatory pain model at 30 umol/kg, sc; type: ADME, cell-free
REPORTED_ENDPOINT: concentration (µM)
One number for each entry, in µM.

IN: I'd like to know its concentration. The compound in question is `CNC(=O)CCCN(C)C(=O)c1ccc2c(c1)c1c(n2C)CC[C@@H](C2CCOCC2)C1`
OUT: 9.1

====

assay: Clearance in Sprague-Dawley rat at 2 umol/kg, iv; format: ADME, organism-based; settings: in vivo
REPORTED_ENDPOINT: clearance (mL/min/kg)
Give bare numbers, in mL/min/kg.

IN: I'd like to know its clearance. The molecule in question is `CNC(=O)CCCN(C)C(=O)c1ccc2c(c1)c1c(n2C)CC[C@@H](C2CCOCC2)C1`
OUT: 2.8
